- Tested on: RAW 264.7 cells
- Protocol details: Cytotoxicity in RAW 264.7 cells (MTT assay)
- Format: cell-based, murine
- Measurement setup: Mus musculus, RAW264.7, 24 h treatment, read-out: IC50 (cell viability)
Observation type: IC50

Lab note: record IC50 of Cc1c(C)c2c(c(C)c1O)CCC(C)(/C=C/[N+](=O)[O-])O2 (racemic) tested on RAW 264.7 cells.
24 µM
